Reference for the values: patent US20230263822A1

- Tested on: Factor 11 activity
- experimentNotes: Factor 11 protein activity, F11 assay based on clotting time (Example 45)
- Type: in vivo, cynomolgus monkeys
- particulars: day 36; escalating dose regimen
Hi, to clarify the labels: 1 covers percent inhibition of Factor 11 activity, relative to PBS control from 10% upward, 0 covers anything below 10%.

• ISIS 417002: MOE gapmer, nucleobases 1275 to 1318 of SEQ ID NO: 1 (Table 8) (antisense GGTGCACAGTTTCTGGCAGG; MOE gapmer, wing and gap sizes not given here) = 0
• ISIS 416838: MOE gapmer, nucleobases 1018 to 1042 of SEQ ID NO: 1 (Table 6) (antisense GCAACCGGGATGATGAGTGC; MOE gapmer, wing and gap sizes not given here) = 1
• ISIS 416850: MOE gapmer, nucleobases 1275 to 1318 of SEQ ID NO: 1 (Table 8) (antisense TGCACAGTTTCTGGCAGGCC; MOE gapmer, wing and gap sizes not given here) = 1
• ISIS 416858: MOE gapmer, nucleobases 1275 to 1318 of SEQ ID NO: 1 (Table 8) (antisense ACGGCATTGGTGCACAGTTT; MOE gapmer, wing and gap sizes not given here) = 1
• ISIS 416864: MOE gapmer, nucleobases 1275 to 1318 of SEQ ID NO: 1 (Table 8) (antisense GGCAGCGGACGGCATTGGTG; MOE gapmer, wing and gap sizes not given here) = 0

====

- Tested on: platelet aggregation
- experimentNotes: Platelet aggregation assay, ADP and/or collagen (Example 45)
- Type: in vivo, cynomolgus monkeys
- particulars: day 15 (with ADP); escalating dose regimen
Entries and their platelet aggregation values follow.
observable: platelet aggregation (Ohms)

- ISIS 416858: MOE gapmer, nucleobases 1275 to 1318 of SEQ ID NO: 1 (Table 8) (antisense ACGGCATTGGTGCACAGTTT; MOE gapmer, wing and gap sizes not given here): 19
- ISIS 416850: MOE gapmer, nucleobases 1275 to 1318 of SEQ ID NO: 1 (Table 8) (antisense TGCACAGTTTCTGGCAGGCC; MOE gapmer, wing and gap sizes not given here): 12
- ISIS 416864: MOE gapmer, nucleobases 1275 to 1318 of SEQ ID NO: 1 (Table 8) (antisense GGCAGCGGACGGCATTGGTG; MOE gapmer, wing and gap sizes not given here): 20
- ISIS 417002: MOE gapmer, nucleobases 1275 to 1318 of SEQ ID NO: 1 (Table 8) (antisense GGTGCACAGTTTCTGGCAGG; MOE gapmer, wing and gap sizes not given here): 16
- ISIS 416838: MOE gapmer, nucleobases 1018 to 1042 of SEQ ID NO: 1 (Table 6) (antisense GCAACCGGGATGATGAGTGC; MOE gapmer, wing and gap sizes not given here): 15

====

Below is a list of entries, each paired with its recorded MCH value.
- experimentNotes: Hematology assays in cynomolgus monkeys (Example 45)
- Type: in vivo
- particulars: day 29; escalating dose regimen
- Protocol: Groups, each consisting of two male and three female monkeys, were injected subcutaneously with ISIS 416838, ISIS 416850, ISIS 416858, ISIS 416864, or ISIS 417002 in escalating doses. […] Body weights were measured weekly. […]
observable: MCH (pg)

- ISIS 416858: MOE gapmer, nucleobases 1275 to 1318 of SEQ ID NO: 1 (Table 8) (antisense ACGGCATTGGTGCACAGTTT; MOE gapmer, wing and gap sizes not given here): 23
- ISIS 417002: MOE gapmer, nucleobases 1275 to 1318 of SEQ ID NO: 1 (Table 8) (antisense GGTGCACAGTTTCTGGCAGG; MOE gapmer, wing and gap sizes not given here): 23
- ISIS 416838: MOE gapmer, nucleobases 1018 to 1042 of SEQ ID NO: 1 (Table 6) (antisense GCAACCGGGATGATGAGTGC; MOE gapmer, wing and gap sizes not given here): 23
- ISIS 416850: MOE gapmer, nucleobases 1275 to 1318 of SEQ ID NO: 1 (Table 8) (antisense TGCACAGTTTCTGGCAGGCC; MOE gapmer, wing and gap sizes not given here): 23
- ISIS 416864: MOE gapmer, nucleobases 1275 to 1318 of SEQ ID NO: 1 (Table 8) (antisense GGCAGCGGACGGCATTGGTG; MOE gapmer, wing and gap sizes not given here): 23
